Where these numbers come from: patent US9193719B2

For each of the compounds below, state its pIC50.
target: unphosphorylated PDGFRβ kinase (uPDGFRβ, Seq. ID No. 3) (Homo sapiens, UniProt P09619); assay: uPDGFRβ kinase enzymatic assay (pyruvate kinase/lactate dehydrogenase coupled); conditions: ATP 500 μM, rate 1.5 to 2.5 h
Sequence (P09619 557-1106): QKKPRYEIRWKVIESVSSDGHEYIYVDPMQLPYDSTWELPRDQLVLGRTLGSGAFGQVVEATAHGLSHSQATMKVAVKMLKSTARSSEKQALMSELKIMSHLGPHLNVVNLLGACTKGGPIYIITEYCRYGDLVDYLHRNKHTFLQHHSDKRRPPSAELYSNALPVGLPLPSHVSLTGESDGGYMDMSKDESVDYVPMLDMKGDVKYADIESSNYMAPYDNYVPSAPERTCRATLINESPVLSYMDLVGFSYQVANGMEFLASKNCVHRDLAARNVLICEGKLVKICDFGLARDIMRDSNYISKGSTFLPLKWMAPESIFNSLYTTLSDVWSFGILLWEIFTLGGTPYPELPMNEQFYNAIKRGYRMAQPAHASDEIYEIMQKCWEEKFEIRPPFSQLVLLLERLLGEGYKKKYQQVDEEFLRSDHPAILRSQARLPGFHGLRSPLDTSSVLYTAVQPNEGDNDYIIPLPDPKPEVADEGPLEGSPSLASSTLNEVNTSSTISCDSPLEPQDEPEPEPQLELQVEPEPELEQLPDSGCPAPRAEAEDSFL
pIC50: −log10 of the molar value.

Worked cases, answers included:
Cc1nc(-n2nc(C(C)(C)C)[nH]c2=O)ccc1Oc1ccnc(-c2ccc(N3CCN(C)CC3)nc2)c1 [Example 40] :: < 6.00
CCn1cc(-c2cc(Oc3ccc(-n4nc(C(C)(C)C)[nH]c4=O)nc3C)ccn2)cn1 [Example 38] :: < 6.00
Cc1nc(-n2nc(C(C)(C)C)[nH]c2=O)ccc1Oc1ccnc(-c2cnn(C)c2)c1 [Example 7] :: < 6.00
CNC(=O)c1cc(Oc2ccc(-n3nc(C(C)(C)C)[nH]c3=O)nc2)ccn1 [Example 26] :: < 6.00
Cc1nc(-n2nc(C(C)(C)C)[nH]c2=O)ccc1Oc1cc(-c2cnn(C)c2)ncn1 [Example 47] :: < 6.00

Give measured pIC50 for every item shown.
1. Cc1nc(-n2nc(C3CCCC3)[nH]c2=O)ccc1Oc1ccnc(-c2cnn(C)c2)c1 [Example 34]
2. Cc1nc(-n2nc(-c3ccc(F)cc3)[nH]c2=O)ccc1Oc1ccnc(-c2cnn(C)c2)c1 [Example 28]

1: 7.00 to 8.00; 2: < 6.00

Give measured pIC50 for every item shown.
1. COCCc1nn(-c2ccc(Oc3ccnc(-c4cnn(C)c4)c3)c(C)n2)c(=O)[nH]1 [Example 15]
2. COC(C)(C)c1nn(-c2cc(C)c(Oc3ccnc(NC(C)=O)c3)cn2)c(=O)[nH]1 [Example 44]
3. Cc1nc(-n2nc(C(C)(C)C)oc2=O)ccc1Oc1ccnc(-c2cnn(C)c2)c1 [Example 49]

1. < 6.00
2. 6.00 to 7.00
3. < 6.00
